Answer each item with its documented MIC.
System: S. pneumoniae ATCC 49619
METHOD NOTES: CLSI broth dilution MIC determination
Assay type: cell-based
STATED CONDITIONS: S. pneumoniae ATCC 49619; Gram-positive

>  <COMPOUND>
CC[C@H]1OC(=O)[C@H](C)C(=O)[C@H](C)[C@@H](O[C@@H]2OC(C)CC(N(C)C)C2O)[C@](C)(OC)C[C@@H](C)C(=O)[C@H](C)[C@H]2N(CC3CC3Cn3cc(-c4cccc(N)c4)nn3)C(=O)O[C@]12C (some centres unmarked) [FSM-100429]

>  <MIC>
< 0.0312 µg/mL

$$$$

// map CC[C@H]1OC(=O)[C@@](C)(F)C(=O)[C@H](C)[C@@H](O[C@@H]2OC(C)CC(N(C)C)C2O)[C@](C)(OC)C[C@@H](C)C(=O)[C@H](C)[C@H]2N(C/C=C/Cn3cc(-c4cccc(N)c4)nn3)C(=O)O[C@]12C (some centres unmarked) to recorded MIC (system: S. pneumoniae ATCC 49619)
≤ 0.0312 µg/mL
